# credit: patent US6723753B2

The reader will find reported pIC50 values listed item by item below.
biological target: CETP (Homo sapiens); experiment: Assay of CETP Inhibition using Purified Components (Reconstituted Buffer Assay); format: biochemical; design: made in house; host or cells: CHO cells (serum-free conditioned medium); conditions: Inhibition of CETP activity in reconstituted buffer assay; transfer of [3H]CE from HDL to LDL; read-out: IC50
Sequence (P11597 18-493): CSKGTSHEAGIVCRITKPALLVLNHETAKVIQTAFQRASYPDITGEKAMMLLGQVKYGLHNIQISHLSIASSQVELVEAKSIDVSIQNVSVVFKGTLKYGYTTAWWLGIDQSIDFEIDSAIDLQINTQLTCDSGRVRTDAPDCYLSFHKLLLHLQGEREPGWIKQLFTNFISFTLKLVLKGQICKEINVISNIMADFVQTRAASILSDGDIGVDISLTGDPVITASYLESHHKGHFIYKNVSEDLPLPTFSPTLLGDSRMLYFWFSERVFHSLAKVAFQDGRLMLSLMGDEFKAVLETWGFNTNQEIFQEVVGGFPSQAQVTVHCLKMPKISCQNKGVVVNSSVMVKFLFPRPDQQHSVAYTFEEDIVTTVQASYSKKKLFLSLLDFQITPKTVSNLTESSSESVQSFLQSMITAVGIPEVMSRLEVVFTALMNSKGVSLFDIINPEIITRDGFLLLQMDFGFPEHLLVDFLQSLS
pIC50: −log10 of the molar value.

| molecule | readoutQualifier | pIC50 |
| --- | --- | --- |
| OC(CN(Cc1cccc(OC(F)(F)C(F)F)c1)c1cccc(OCc2cccc(Oc3ccccc3)c2)c1)C(F)(F)F (stereo not shown) | = | 5.60 |
| OC(CN(Cc1cccc(OC(F)(F)C(F)F)c1)c1cccc(NCc2cccc(C(F)(F)F)c2)c1)C(F)(F)F (stereo not shown) | = | 5.59 |
| OC(CN(Cc1cccc(OC(F)(F)C(F)F)c1)c1cccc(Oc2cc(F)ccc2Br)c1)C(F)(F)F (stereo not shown) | = | 7.27 |
| CCc1cc(Oc2cccc(N(Cc3cccc(C(F)(F)C(F)(F)F)c3)CC(O)C(F)(F)F)c2)ccc1Cl (stereo not shown) | = | 7.40 |
| Nc1ccc(COc2cccc(N(Cc3cccc(OC(F)(F)C(F)F)c3)CC(O)C(F)(F)F)c2)cc1 (stereo not shown) | < | 4.30 |
| OC(CN(Cc1cccc(Oc2ccccc2)c1)c1ccc2c(c1)OCO2)C(F)(F)F (stereo not shown) | = | 4.10 |
| OCCOc1cccc(CN(CC(O)C(F)(F)F)c2cccc(OC(F)(F)F)c2)c1 (stereo not shown) | = | 4.46 |
| CSc1ccc(-c2cccc(N(Cc3cccc(OC(F)(F)C(F)F)c3)CC(O)C(F)(F)F)c2)cc1 (stereo not shown) | = | 5.32 |
| Cc1ccc(-c2noc(-c3ccc(Nc4cccc(N(Cc5cccc(OC(F)(F)C(F)F)c5)CC(O)C(F)(F)F)c4)cc3)n2)cc1 (stereo not shown) | = | 4.51 |
| Cc1cc(C(=O)c2cccc(N(Cc3cccc(OC(F)(F)C(F)F)c3)CC(O)C(F)(F)F)c2)ccc1F (stereo not shown) | = | 6.12 |
| FC(F)(F)CCCN(Cc1cccc(OC(F)(F)F)c1)c1cccc(Oc2ccccc2)c1 | = | 4.96 |
| Cc1cccc(CN(CC(O)C(F)(F)F)c2ccc(Cl)c(C(F)(F)F)c2)c1 (stereo not shown) | = | 4.82 |
| OC(CN(Cc1cccc(OC(F)(F)C(F)F)c1)c1cccc(Cc2cc(Cl)cc(Cl)c2)c1)C(F)(F)F (stereo not shown) | = | 6.10 |
| O=S(=O)(c1cccc(N(Cc2cccc(OC(F)(F)C(F)F)c2)CC(O)C(F)(F)F)c1)C1CCNCC1 (stereo not shown) | < | 4.30 |
| COc1cccc(N(Cc2ccc(C(F)(F)F)cc2)CC(O)C(F)(F)F)c1 (stereo not shown) | = | 5.10 |
| COc1ccc(Oc2cccc(CN(CC(O)C(F)(F)F)c3cccc(Oc4ccccc4)c3)c2)cc1 (stereo not shown) | < | 4.00 |
